biological target: High affinity cGMP-specific 3',5'-cyclic phosphodiesterase 9A (Homo sapiens)
Sequence (O76083 whole entry): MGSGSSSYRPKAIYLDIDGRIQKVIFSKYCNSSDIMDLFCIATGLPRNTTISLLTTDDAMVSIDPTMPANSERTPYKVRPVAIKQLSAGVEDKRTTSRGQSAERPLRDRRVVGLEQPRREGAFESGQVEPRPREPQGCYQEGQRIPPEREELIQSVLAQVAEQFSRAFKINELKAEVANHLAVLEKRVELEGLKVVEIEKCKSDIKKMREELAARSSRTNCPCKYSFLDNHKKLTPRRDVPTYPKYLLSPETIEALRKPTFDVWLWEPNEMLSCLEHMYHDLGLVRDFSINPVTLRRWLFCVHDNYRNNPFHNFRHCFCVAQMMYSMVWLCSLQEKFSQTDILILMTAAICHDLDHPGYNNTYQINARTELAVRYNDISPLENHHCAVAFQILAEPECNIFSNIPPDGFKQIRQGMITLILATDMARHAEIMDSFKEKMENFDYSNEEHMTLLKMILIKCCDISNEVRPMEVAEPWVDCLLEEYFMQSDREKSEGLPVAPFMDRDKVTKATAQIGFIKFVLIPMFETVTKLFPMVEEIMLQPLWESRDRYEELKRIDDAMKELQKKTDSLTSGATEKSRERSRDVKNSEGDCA
# IC50 per entry
# value in nM; strip the unit string

Worked cases, answers included:
> print(dat)
                               query.smiles  endpoint.value
1  O=c1[nH]c(CCCCC2CCN(Cc3ccccc3)CC2)nc2c1cnn2C1CCCC1             280
2  O=c1[nH]c(CNCCC2CCN(Cc3ccccc3)CC2)nc2c1cnn2C1CCCC1             380

**Query** What value of measured IC50 is listed for `O=c1[nH]c(COCCC2CCN(Cc3ccccc3)CC2)nc2c1cnn2C1CCCC1` ?
**Result** 530

###

molecular target: Beta-secretase 1 (Homo sapiens, UniProt P56817); assay: Inhibition of BACE-1 (unknown origin) measured after 2 hrs by FRET assay
Sequence (P56817 whole entry): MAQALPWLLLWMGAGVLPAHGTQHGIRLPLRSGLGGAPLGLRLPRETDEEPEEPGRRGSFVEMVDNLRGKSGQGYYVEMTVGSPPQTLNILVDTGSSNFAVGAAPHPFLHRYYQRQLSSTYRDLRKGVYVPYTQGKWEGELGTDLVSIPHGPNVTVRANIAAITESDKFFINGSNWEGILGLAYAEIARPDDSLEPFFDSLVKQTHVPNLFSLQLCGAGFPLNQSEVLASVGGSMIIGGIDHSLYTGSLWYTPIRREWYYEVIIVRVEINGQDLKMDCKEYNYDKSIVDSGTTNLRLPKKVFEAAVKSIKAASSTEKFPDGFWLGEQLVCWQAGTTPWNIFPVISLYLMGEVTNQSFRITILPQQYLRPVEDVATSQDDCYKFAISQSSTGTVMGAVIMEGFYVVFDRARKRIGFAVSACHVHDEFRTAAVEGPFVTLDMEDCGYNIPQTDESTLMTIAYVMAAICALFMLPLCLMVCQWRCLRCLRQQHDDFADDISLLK
# pIC50 per entry
Lab note — pIC50 values are minus log10 of concentrations in M.

> print(dat)
                               query.smiles  endpoint.value
1  COc1ccc(-c2ccccc2/C=C2/Cc3cc(OC)ccc3C2=O)cc1            7.00
2  CN(Cc1ccccc1)Cc1ccc(/C=C2/Cc3ccc(OCCCCCN4CCN(C(c5ccc(F)cc5)c5ccc(F)cc5)CC4)cc3C2=O)cc1            6.47
3  COc1ccc2c(c1)C/C(=C/c1ccccc1-c1ccccc1)C2=O            6.90

Next compound, pIC50 to be filled in.
**Query** What value of measured pIC50 is listed for `COc1ccc2c(c1)C/C(=C/c1ccccc1-c1ccc3nc(N)ccc3c1)C2=O` ?
**Result** 7.88

###

target: Acetylcholinesterase (Homo sapiens, UniProt P22303); assay: Inhibition of AChE (unknown origin) incubated for 1 hr by Ellman's method
Sequence (P22303 whole entry): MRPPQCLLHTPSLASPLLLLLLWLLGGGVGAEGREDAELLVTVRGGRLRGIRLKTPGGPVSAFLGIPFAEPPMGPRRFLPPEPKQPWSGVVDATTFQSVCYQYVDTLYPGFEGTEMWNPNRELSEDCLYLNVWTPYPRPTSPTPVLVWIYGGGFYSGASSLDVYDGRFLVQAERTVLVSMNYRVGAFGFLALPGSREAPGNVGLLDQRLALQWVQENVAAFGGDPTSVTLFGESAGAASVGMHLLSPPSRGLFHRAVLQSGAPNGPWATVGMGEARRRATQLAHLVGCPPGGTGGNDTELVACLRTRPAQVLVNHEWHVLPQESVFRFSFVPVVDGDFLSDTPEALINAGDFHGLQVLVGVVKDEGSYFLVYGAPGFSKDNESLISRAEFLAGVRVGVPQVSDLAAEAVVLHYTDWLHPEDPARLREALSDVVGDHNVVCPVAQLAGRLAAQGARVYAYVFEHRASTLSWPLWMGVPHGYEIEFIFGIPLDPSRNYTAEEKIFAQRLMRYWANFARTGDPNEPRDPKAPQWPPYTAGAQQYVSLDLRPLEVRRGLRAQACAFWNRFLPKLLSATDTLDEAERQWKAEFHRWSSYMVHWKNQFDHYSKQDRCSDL
Reported Property: pIC50
Lab note — pIC50 values are minus log10 of concentrations in M.

Worked cases, answers included:
> print(dat)
                               query.smiles                             target.system  reported.property  endpoint.value
1  COC(=O)c1ccc(/C=N/NC(=O)c2ccc(Cl)nc2)cc1  Acetylcholinesterase (Homo sapiens, UniProt P22303)              pIC50            7.00
2     CCOc1cc(/C=N/NC(=O)c2ccc(Cl)nc2)ccc1O  Acetylcholinesterase (Homo sapiens, UniProt P22303)              pIC50            7.52
3     COc1ccc(/C=N/NC(=O)c2ccc(Cl)nc2)cc1OC  Acetylcholinesterase (Homo sapiens, UniProt P22303)              pIC50            7.52

**Query** What value of measured pIC50 is listed for `O=C(N/N=C/c1ccc([N+](=O)[O-])cc1)c1ccc(Cl)nc1` ?
**Result** 7.70

**Query** Repeat for the following molecule: `COc1cc(/C=N/NC(=O)c2ccc(Cl)nc2)ccc1O`
**Result** 7.52

###

biological target: Beta-secretase 1 (Homo sapiens, UniProt P56817); assay: Inhibition of BACE-1 (unknown origin) incubated for 60 mins by TR-FRET assay
# IC50 per entry
# value in µM; strip the unit string

> print(dat)
                        query.smiles                             target.system  reported.property  endpoint.value
1  Nc1ccccc1C(=O)/C=C/c1cnc2ccccc2c1  Beta-secretase 1 (Homo sapiens, UniProt P56817)               IC50            16.9

Next compound, IC50 to be filled in.
**Query** What value of measured IC50 is listed for `Nc1ccccc1C(=O)/C=C/c1ccc(Cl)nc1` ?
**Result** 8.34
